# Experiment Notes: Half life in rat after 1 mg/kg i.v. administration
# Assay type: ADME, organism-based
# Design: dose 1 mg/kg, route intravenous
# Assay Setup: in vivo, iv
Measurement Kind: half-life (h)

a: Cc1nc2cc(OC[C@H](O)CN3CCN(CC(=O)Nc4c(C)cccc4C)CC3)ccc2s1
b: CCn1c2ccccc2c2cc(NC(=O)CN3CCN(C[C@@H](O)COc4ccc5sc(C)nc5c4)CC3)ccc21
Sort a and b by half-life descending and give the first. The response must carry the label of the picked entry.
b

---

# Experiment Notes: Time to reach maximum concentration in rat after 2 mg/kg peroral administration; 4-6
# Format: ADME, organism-based
# Set-up: dose 2 mg/kg, route oral
# Assay Setup: in vivo, po
Measurement Kind: Tmax (h)
Record the value in h, omitting the unit from your answer.

Name the reported Tmax value associated with the compound CCn1c2ccccc2c2cc(NC(=O)CN3CCN(C[C@@H](O)COc4ccc5sc(C)nc5c4)CC3)ccc21
6

---

# System Name: Peroxisomal acyl-coenzyme A oxidase 1 (Rattus norvegicus) (UniProt P07872)
# Sequence (P07872 whole entry): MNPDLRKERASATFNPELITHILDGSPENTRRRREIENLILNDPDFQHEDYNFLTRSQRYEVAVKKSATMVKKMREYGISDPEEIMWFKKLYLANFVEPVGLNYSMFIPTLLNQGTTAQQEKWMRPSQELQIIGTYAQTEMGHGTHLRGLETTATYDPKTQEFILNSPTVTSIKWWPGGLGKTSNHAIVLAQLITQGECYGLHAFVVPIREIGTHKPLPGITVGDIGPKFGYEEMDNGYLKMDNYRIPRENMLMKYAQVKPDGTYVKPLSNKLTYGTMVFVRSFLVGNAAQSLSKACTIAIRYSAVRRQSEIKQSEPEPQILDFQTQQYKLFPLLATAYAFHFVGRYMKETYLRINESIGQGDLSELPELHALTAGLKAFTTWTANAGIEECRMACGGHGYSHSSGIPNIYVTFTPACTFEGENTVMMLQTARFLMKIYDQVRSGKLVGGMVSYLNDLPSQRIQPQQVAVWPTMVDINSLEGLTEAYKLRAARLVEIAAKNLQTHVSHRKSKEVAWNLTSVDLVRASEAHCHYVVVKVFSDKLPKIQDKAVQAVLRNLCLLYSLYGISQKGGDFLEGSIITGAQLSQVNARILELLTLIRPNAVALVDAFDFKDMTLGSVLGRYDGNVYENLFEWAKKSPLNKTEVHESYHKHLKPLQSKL
# Experiment Notes: Inhibition of rat heart mitochondrial Palmitoyl-CoA oxidation at 30 uM
Measurement Kind: inhibition (%)

// solved cases for inhibition follow
>  <Smiles Repr>
Cc1nc2cc(OC[C@H](O)CN3CCN(CC(=O)Nc4ccccc4Oc4ccccc4)CC3)ccc2s1

>  <Measured>
34

$$$$
>  <Smiles Repr>
Cc1nc2cc(OC[C@H](O)CN3CCN(CC(=O)Nc4ccc(C#N)cc4)CC3)ccc2s1

>  <Measured>
42

$$$$
>  <Smiles Repr>
Cc1cc(NC(=O)CN2CCN(C[C@@H](O)COc3ccc4sc(C)nc4c3)CC2)c2ccccc2n1

>  <Measured>
40

$$$$
>  <Smiles Repr>
Cc1nc2cc(OC[C@H](O)CN3CCN(CC(=O)N[C@H](C)c4cccc5ccccc45)CC3)ccc2s1

>  <Measured>
24

$$$$
>  <Smiles Repr>
Cc1nc2cc(OC[C@H](O)CN3CCN(CC(=O)Nc4ccccc4-c4ccccc4)CC3)ccc2s1

>  <Measured>
39

$$$$

a: Cc1nc2cc(OC[C@H](O)CN3CCN(CC(=O)N[C@H](C)c4ccc(F)cc4)CC3)ccc2s1
b: Cc1nc2cc(OC[C@H](O)CN3CCN(CC(=O)N[C@H](C)c4ccccc4)CC3)ccc2s1
c: Cc1nc2cc(OC[C@H](O)CN3CCN(CC(=O)Nn4nnc5ccccc54)CC3)ccc2s1
Would you mind ranking these compounds by ascending inhibition? # list labels per requested ordering
c, b, a
(c: 16%, b: 23%, a: 40%)

---

# System Name: Cytochrome P450 3A4 (Homo sapiens)
# Sequence (P08684 whole entry): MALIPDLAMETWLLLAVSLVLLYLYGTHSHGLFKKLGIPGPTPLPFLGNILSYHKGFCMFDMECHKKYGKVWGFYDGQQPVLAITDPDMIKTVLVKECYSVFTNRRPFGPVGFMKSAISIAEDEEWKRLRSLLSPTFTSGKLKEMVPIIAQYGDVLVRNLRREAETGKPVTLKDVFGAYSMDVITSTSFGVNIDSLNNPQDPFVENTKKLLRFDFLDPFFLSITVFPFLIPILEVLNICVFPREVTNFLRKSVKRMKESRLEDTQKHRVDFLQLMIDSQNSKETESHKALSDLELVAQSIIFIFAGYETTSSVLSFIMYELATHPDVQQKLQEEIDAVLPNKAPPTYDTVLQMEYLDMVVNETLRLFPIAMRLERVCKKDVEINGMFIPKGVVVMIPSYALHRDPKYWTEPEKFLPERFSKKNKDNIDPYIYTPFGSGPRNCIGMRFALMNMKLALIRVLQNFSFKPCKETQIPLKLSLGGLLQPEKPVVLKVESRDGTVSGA
# Experiment Notes: Inhibition of cytochrome P450 3A4 (human)
Measurement Kind: IC50 (µM)

A: Cc1nc2cc(OC[C@H](O)CN3CCN(CC(=O)Nc4ccc(-c5ccccc5)cc4)CC3)ccc2s1
B: Cc1nc2cc(OC[C@H](O)CN3CCN(CC(=O)Nc4cccc(-c5ccccc5)c4)CC3)ccc2s1
Sort A and B by IC50 descending and give the first. The response must carry the label of the picked entry.
B

---

# Experiment Notes: Clearance of compound in rat after 1 mg/kg i.v. administration
# Type: ADME, organism-based
# Parameters: dose 1 mg/kg, route intravenous
# Assay Setup: plasma, iv, read-out: Clp
Measurement Kind: clearance (mL/min/kg)

1: CCn1c2ccccc2c2cc(NC(=O)CN3CCN(C[C@@H](O)COc4ccc5sc(C)nc5c4)CC3)ccc21
2: Cc1nc2cc(OC[C@H](O)CN3CCN(CC(=O)Nc4c(C)cccc4C)CC3)ccc2s1
Parameter metric = clearance. Return the lower-valued option from 1 and 2 . The response must carry the label of the picked entry.
1
(1: 13.5 mL/min/kg, 2: 54.5 mL/min/kg)

These measurements were taken from ChEMBL document CHEMBL1148425.
